Below is a list of entries, each paired with its recorded activation factor value.
System: intestinal alkaline phosphatase [Mus musculus]
METHOD_DESCRIPTION: mouse intestinal phosphatase enzyme activation – biochemical, luminescence, single concentration, confirmation (AID 434970)
CONDITION_SET: purified mouse IAP, CDP-Star luminescence, 30 min, at 10 µM; measured here: IAP activation factor, stronger effect = higher value
The whole screen tested about 11,000 compounds, of which about 310 (2.8%) were called active. Many of the other results were omitted from the sample, so actives are more common in it than they were.
Hey, just send me the number, nothing else.

# annotated cases, reported activation factor shown
CCOC(=O)C1=CN(Cc2cccc(F)c2)S(=O)(=O)NC1c1ccc(Br)cc1F (configuration not stated) ... 0.921
Cc1ccc(NC(=O)C(=O)NNC(=O)c2ccccc2C)cc1Cl ... 0.889
O=C(Nc1ccc(Cl)c(Cl)c1)Nc1cc(S(=O)(=O)N2CCOCC2)ccc1N1CCCC1 ... 2.53
Cc1cc(NC(=O)CN2C(=O)C3CC=CCC3C2=O)no1 (configuration not stated) ... 0.929
Cc1ccc(S(=O)(=O)N(C)C[C@@H]2Oc3ccc(NC(=O)Nc4cccc5ccccc45)cc3C(=O)N([C@H](C)CO)C[C@H]2C)cc1 ... 2.13
N[C@@H](Cc1ccccc1)c1nnc2sc(SCc3ccccc3)nn12 ... 0.972
CC1(C)Cc2c(sc3c2C2=NCCN2C=N3)CO1 ... 0.94
C#CCOCCOCCOCCNc1nc(N2CCN(C(=O)CCCCCCCCCCNC(=O)[C@H]([C@@H](C)CC)n3cc(CCCCN=C(N)N)nn3)CC2)nc(N2CCN(C(=O)CCCCCCCCCCNC(=O)[C@@H]([C@H](C)O)n3cc(C)nn3)CC2)n1 ... 14.6

## Task Give a short answer stating reported activation factor for `O=C(Nc1ccccc1)c1ccc(S(=O)(=O)N2CCOCC2)cc1` .
## Result 1.01

---

System: intestinal alkaline phosphatase [Mus musculus]
METHOD_DESCRIPTION: mouse intestinal phosphatase enzyme activation – biochemical, luminescence, single concentration, confirmation (AID 434970)
CONDITION_SET: purified mouse IAP, CDP-Star luminescence, 30 min, at 10 µM; measured here: IAP activation factor, stronger effect = higher value
In all, about 11,000 compounds went through this assay and about 310 (2.8%) were called active. For the sample, actives were picked, then their nearest neighbours and some compounds at random.
Entries and their activation factor values follow.
// return a plain number; no unit text

COc1ccc(NC(=O)NCc2ccncc2)cc1 ... 1.01
c1ccc(-n2nnnc2SCc2cccc3nsnc23)cc1 ... 0.908
CCCCC(=O)Nc1ccc(NC(=O)c2cccnc2)cn1 ... 1.06

Attention now turns to another entry.
## Task Write down the reported activation factor (system: intestinal alkaline phosphatase [Mus musculus]) of `S=C(NCc1ccccc1)Nc1ccc(Oc2ccccc2)cc1`
## Result 1.49

---

Tested on: intestinal alkaline phosphatase [Mus musculus]
METHOD_DESCRIPTION: mouse intestinal phosphatase enzyme activation – biochemical, luminescence, single concentration, confirmation (AID 434970)
CONDITION_SET: purified mouse IAP, CDP-Star luminescence, 30 min, at 10 µM; measured here: IAP activation factor, stronger effect = higher value
Hit rate of the full screen: of about 11,000 compounds, about 310 (2.8%) were called active. What follows is part of a selection rich in actives, with near analogues and random picks from the rest.
OBSERVED_PROPERTY: activation factor

Recorded results for 5 compounds are shown here.
CS(=O)(=O)Nc1ccccc1C(=O)c1ccccc1 ... 1.04
CSc1cccc(NC(=O)Nc2nc3c(C)cccc3s2)c1 ... 1.45
C=C(C)Cn1c(=O)c2c(nc3n2CCN3c2cccc(Cl)c2C)n(C)c1=O ... 0.924
CCOCCCNC(=O)c1ccccc1SCC ... 1.04
CSc1cccc(NC(=O)Nc2ccccc2)c1 ... 2.1

Turning now to a further compound:
## Task Give the value of activation factor reported for the following: `Cc1cccc(Cn2cnc3c(NS(C)(=O)=O)c(C)c(C)cc32)c1`
## Result 1.13
